# ASSAY_SYSTEM: Porcine ventricle myofibrils (ventricular myosin ATPase) (Sus scrofa)
# Construct: Myofibrils from porcine cardiac muscle was isolated from the left ventricle of Yucatan minipigs; tissue Exemplar Genetics; host or cells: left ventricle of Yucatan minipigs, myofibrils prepared in house
# Sequence (P79293 whole entry): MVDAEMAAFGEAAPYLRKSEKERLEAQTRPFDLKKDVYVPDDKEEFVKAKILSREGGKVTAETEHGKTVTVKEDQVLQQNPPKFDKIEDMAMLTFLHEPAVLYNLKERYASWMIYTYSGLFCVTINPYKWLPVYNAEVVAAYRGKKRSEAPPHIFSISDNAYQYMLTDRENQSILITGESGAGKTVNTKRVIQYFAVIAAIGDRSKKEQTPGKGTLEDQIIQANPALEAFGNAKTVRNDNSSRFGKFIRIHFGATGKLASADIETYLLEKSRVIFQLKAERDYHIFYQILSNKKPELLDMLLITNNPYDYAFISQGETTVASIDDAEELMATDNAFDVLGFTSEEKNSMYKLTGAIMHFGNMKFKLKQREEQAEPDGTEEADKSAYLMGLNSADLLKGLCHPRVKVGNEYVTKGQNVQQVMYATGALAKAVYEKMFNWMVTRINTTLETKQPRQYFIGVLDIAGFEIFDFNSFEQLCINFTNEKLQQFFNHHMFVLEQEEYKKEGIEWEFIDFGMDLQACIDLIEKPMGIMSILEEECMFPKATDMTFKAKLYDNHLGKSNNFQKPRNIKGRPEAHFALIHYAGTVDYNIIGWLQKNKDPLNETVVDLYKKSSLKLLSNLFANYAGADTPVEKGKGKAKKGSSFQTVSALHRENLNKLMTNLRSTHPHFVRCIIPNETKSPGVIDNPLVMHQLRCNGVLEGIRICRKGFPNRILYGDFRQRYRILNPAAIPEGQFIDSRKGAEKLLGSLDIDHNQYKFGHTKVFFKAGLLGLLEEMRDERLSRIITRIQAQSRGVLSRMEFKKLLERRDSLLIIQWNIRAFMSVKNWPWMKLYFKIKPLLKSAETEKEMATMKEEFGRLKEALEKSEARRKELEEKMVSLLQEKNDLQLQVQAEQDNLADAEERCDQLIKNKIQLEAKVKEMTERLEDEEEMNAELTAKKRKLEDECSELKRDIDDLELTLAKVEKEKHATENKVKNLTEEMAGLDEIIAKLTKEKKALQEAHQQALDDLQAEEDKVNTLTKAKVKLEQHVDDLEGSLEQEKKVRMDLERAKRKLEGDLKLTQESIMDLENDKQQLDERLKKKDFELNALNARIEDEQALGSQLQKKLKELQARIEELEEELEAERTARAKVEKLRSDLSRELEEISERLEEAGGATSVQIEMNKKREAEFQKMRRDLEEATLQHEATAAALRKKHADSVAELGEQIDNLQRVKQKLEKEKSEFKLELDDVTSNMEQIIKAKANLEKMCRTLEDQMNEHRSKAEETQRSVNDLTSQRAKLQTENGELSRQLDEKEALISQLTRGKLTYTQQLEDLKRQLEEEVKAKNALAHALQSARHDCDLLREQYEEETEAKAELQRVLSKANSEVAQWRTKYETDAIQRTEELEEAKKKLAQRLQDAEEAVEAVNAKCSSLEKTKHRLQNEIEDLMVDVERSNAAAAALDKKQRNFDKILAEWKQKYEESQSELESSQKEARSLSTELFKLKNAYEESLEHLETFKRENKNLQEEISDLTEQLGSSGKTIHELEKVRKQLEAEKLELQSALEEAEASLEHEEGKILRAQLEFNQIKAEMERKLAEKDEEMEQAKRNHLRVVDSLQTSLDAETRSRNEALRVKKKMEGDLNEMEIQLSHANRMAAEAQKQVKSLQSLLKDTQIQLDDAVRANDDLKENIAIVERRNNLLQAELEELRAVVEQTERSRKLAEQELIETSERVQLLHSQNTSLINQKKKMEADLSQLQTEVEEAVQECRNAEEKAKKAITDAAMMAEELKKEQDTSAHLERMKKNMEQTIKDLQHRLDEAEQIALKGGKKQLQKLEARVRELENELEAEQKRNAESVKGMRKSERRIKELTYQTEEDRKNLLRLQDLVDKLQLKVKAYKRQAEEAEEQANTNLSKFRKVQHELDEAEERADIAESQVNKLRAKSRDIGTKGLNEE
# METHOD_NOTES: Myofibril ATPase assay, porcine ventricle myofibrils
# Type: biochemical, porcine (Yucatan minipigs)
# REPORTED_CONDITIONS: Y75 value (no ‡ mark); porcine ventricle myofibrils
# Experimental: Example 1. Myofibril ATPase Assay Myofibril ATPase assays are known in the art to be useful in evaluating small molecules for the treatment of HCM and other cardiac indications. Myosin ATPase activity is assessed by using a coupled reaction system, in which ADP generated by the myosin ATPase function is coupled to the disappearance of NADH through the pyruvate kinase/lactate dehydrogenase (PK-LDH) system. […]
ASSAY_ENDPOINT: Ventricular EC25 (µM)

Worked cases, answers included:
{"COMPOUND": "C[C@H](NC(=O)Cc1c(C2CC2)c2cc(F)ccc2[nH]c1=O)c1ncc(C#N)cn1 (single isomer, unassigned) [compound 2064]", "Ventricular EC25 / µM": 32.11}
{"COMPOUND": "Cc1nc(C#N)ncc1[C@@H](C)NC(=O)Cc1c(C)c2cc(F)ccc2[nH]c1=O [compound 1052]", "Ventricular EC25 / µM": 7.05}
{"COMPOUND": "Cc1cc(F)cnc1[C@@H](C)NC(=O)C(F)(F)c1c(C)c2cc(F)ccc2[nH]c1=O (single isomer, unassigned) [compound 4807]", "Ventricular EC25 / µM": 1.39}
{"COMPOUND": "C[C@@H](NC(=O)[C@H](C)c1cc2c(F)c(F)ccc2[nH]c1=O)c1ncc(C#N)cc1F (single isomer, unassigned) [compound 2598]", "Ventricular EC25 / µM": 1.10}
{"COMPOUND": "Cc1c(CC(=O)N[C@H](C)c2ccc(C#N)cn2)c(=O)[nH]c2cc(F)c(F)cc12 [compound 1112]", "Ventricular EC25 / µM": 2.09}

P = Cc1c(CC(=O)N[C@H](C)c2ccc(C#N)cc2F)c(=O)[nH]c2ccc(F)c(F)c12 [compound 65]
Q = C[C@H](NC(=O)C1(c2cc3c(F)c(F)ccc3[nH]c2=O)CC1)c1ccc(C#N)cn1 (single isomer, unassigned) [compound 4810]
Exam item: // which entry reports the smaller Ventricular EC25, P or Q ? Return value: the label identifying the chosen record.
Marked response: P
